assayed_system: GABA-A receptor; alpha-3/beta-3/gamma-2 (Homo sapiens) (UniProt P18507+P28472+P34903)
experimental_details: Percentage modulation of submaximal (EC20) response to GABA in Xenopus oocytes expressing human GABA-A alpha-3-beta-3-gamma-2 subunits; further: test concentration or dose not given here
Assay type: cell-based
details: Oocyte
# Efficacy values compiled below

# smiles_text, Efficacy (%)
measured = [
    ("Cc1cc(-c2nnc3c4ccccc4c(OCc4cnn(C)n4)nn23)no1", -3),
    ("Cc1cc(-c2nnc3c4ccccc4c(OCc4cnnn4C)nn23)no1", -6),
    ("Cc1cccc(COc2nn3c(-c4ccoc4)nnc3c3c2C2CCC3CC2)n1", -4),
    ("CNC1=Nc2ccc(Cl)cc2C(c2ccccc2)=[N+]([O-])C1", 173),
    ("Cc1cc(-c2nnc3c4ccccc4c(OCc4cn(C)nn4)nn23)no1", 4),
    ("Cc1cccc(COc2nn3c(-c4ccsc4)nnc3c3c2C2CCC3CC2)n1", 38),
    ("Cc1cccc(COc2nn3c(-c4nc(C)no4)nnc3c3c2C2CCC3CC2)n1", -21),
    ("Cc1cccc(COc2nn3c(-c4cc(C)on4)nnc3c3c2C2CCC3CC2)n1", -1),
    ("Cc1cc(-c2nnc3c4ccccc4c(OCc4ccccn4)nn23)no1", -4),
    ("CCc1c(C(=O)OC)ncc2[nH]c3cc(OC)c(OC)cc3c12", -52),
]

###

assayed_system: GABA-A receptor; alpha-5/beta-3/gamma-2 (Homo sapiens) (UniProt P18507+P28472+P31644)
experimental_details: Percentage modulation of submaximal (EC20) response to GABA in Xenopus oocytes expressing human GABA-A alpha-5-beta-3-gamma-2 subunits; further: test concentration or dose not given here
Format: cell-based
details: Oocyte
# Efficacy values compiled below
measurement_kind: Efficacy (%)

# smiles_text, measurement_kind, value_reported
measured = [
    ("Cc1cccc(COc2nn3c(-c4cc(C)on4)nnc3c3ccccc23)n1", "Efficacy", -15),
    ("Cc1cccc(COc2nn3c(-c4ccccc4)nnc3c3c2C2CCC3CC2)n1", "Efficacy", 15),
    ("Cc1cc(-c2nnc3c4ccccc4c(OCc4cn(C)nn4)nn23)no1", "Efficacy", -29),
    ("Cc1cccc(COc2nn3c(-c4ccoc4)nnc3c3c2C2CCC3CC2)n1", "Efficacy", -24),
    ("CCc1c(C(=O)OC)ncc2[nH]c3cc(OC)c(OC)cc3c12", "Efficacy", -52),
    ("Cc1cccc(COc2nn3c(-c4nc(C)no4)nnc3c3c2C2CCC3CC2)n1", "Efficacy", -35),
    ("Cc1cc(-c2nnc3c4ccccc4c(OCc4cnnn4C)nn23)no1", "Efficacy", -33),
    ("Cc1cc(-c2nnc3c4ccccc4c(OCc4cnn(C)n4)nn23)no1", "Efficacy", -35),
    ("Cc1cccc(COc2nn3c(-c4cc(C)on4)nnc3c3c2C2CCC3CC2)n1", "Efficacy", -29),
    ("Cc1cc(-c2nnc3c4ccccc4c(OCc4ccccn4)nn23)no1", "Efficacy", -46),
]

###

assayed_system: GABA-A receptor; alpha-2/beta-3/gamma-2 (Homo sapiens) (UniProt P18507+P28472+P47869)
experimental_details: Percentage modulation of submaximal (EC20) response to GABA in Xenopus oocytes expressing human GABA-A alpha-2-beta-3-gamma-2 subunits; further: test concentration or dose not given here
Assay type: cell-based
details: Oocyte
measurement_kind: Efficacy (%)

# smiles_text, measurement_kind, value_reported
data = [
    ("Cc1cc(-c2nnc3c4ccccc4c(OCc4cn(C)nn4)nn23)no1", "Efficacy", 12),
    ("Cc1cc(-c2nnc3c4ccccc4c(OCc4cnnn4C)nn23)no1", "Efficacy", -25),
    ("CCc1c(C(=O)OC)ncc2[nH]c3cc(OC)c(OC)cc3c12", "Efficacy", -34),
    ("Cc1cccc(COc2nn3c(-c4ccsc4)nnc3c3c2C2CCC3CC2)n1", "Efficacy", 9),
    ("Cc1cccc(COc2nn3c(-c4cc(C)on4)nnc3c3c2C2CCC3CC2)n1", "Efficacy", 15),
    ("Cc1cccc(COc2nn3c(-c4ccoc4)nnc3c3c2C2CCC3CC2)n1", "Efficacy", -6),
    ("Cc1cc(-c2nnc3c4ccccc4c(OCc4cnn(C)n4)nn23)no1", "Efficacy", 9),
    ("CNC1=Nc2ccc(Cl)cc2C(c2ccccc2)=[N+]([O-])C1", "Efficacy", 101),
    ("Cc1cccc(COc2nn3c(-c4nc(C)no4)nnc3c3c2C2CCC3CC2)n1", "Efficacy", -10),
]
